TESTED ON: human GLP-1 receptor (human, UniProt P43220 24-463)
PROCEDURE TEXT: cell-based or functional assay
QUANTITY: EC50, cAMP (nM)
One number for each entry, in nM.

Guide cases for EC50, cAMP, answers given:
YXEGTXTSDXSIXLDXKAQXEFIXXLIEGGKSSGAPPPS (Aib2, αMeF(2F)6, 4Pal10, αMeL13, Orn16, Aib20, D-Glu24, αMeY25, K17 and K31: K(AEEA2-(εK)-(γ-Glu)-CO-(CH2)12-CO2H), C-terminal NH2) [Example 34]
1
YXEGTXTSDVSIXLDXKAQXEFIKXLIEGGPSSGAPPPS (Aib2, αMeF(2F)6, αMeL13, Orn16, Aib20, αMeY25, K17 and K24: K(AEEA2-(γ-Glu)-CO-(CH2)12-CO2H), C-terminal NH2) [Example 114]
0.176

Please state, for each entry, its recorded EC50, cAMP.
1. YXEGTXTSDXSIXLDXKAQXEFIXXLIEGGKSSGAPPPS (Aib2, αMeF(2F)6, 4Pal10, αMeL13, Orn16, Aib20, D-Glu24, αMeY25, K17 and K31: K(AEEA2-(γ-Glu)-CO-(CH2)12-CO2H), C-terminal NH2) [Example 1]
2. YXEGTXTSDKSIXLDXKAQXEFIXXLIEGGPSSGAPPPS (Aib2, αMeF(2F)6, αMeL13, Orn16, Aib20, D-Glu24, αMeY25, K10 and K17: K(AEEA2-(γ-Glu)-CO-(CH2)14-CH3), C-terminal NH2) [Example 29]
3. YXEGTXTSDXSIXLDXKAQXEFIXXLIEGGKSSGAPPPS (Aib2, αMeF(2F)6, αMeV10, αMeL13, Orn16, Aib20, D-Glu24, αMeY25, K17 and K31: K(AEEA2-(γ-Glu)-CO-(CH2)12-CO2H), C-terminal NH2) [Example 52]
4. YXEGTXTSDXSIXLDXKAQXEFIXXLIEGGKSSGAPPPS (Aib2, αMeF(2F)6, Ac4c10, αMeL13, Orn16, Aib20, D-Glu24, αMeY25, K17 and K31: K(AEEA2-(γ-Glu)-CO-(CH2)12-CO2H), C-terminal NH2) [Example 95]
5. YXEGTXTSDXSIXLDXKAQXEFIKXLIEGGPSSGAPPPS (Aib2, αMeF(2F)6, 4Pal10, αMeL13, Orn16, Aib20, αMeY25, K17 and K24: K(AEEA2-CO-(CH2)12-CO2H), C-terminal NH2) [Example 81]
6. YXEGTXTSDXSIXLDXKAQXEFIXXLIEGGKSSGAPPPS (Aib2, αMeF(2F)6, 4Pal10, αMeL13, Orn16, Aib20, D-Glu24, αMeY25, K17 and K31: K(AEEA-(γ-Glu)-CO-(CH2)14-CH3), C-terminal NH2) [Example 13]
7. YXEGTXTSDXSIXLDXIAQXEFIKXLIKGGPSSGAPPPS (Aib2, αMeF(2F)6, 4Pal10, αMeL13, Orn16, Aib20, αMeY25, K24 and K28: K(AEEA2-(γ-Glu)-CO-(CH2)12-CO2H), C-terminal NH2) [Example 70]

Reply:
0.925
0.00468
0.384
0.181
0.176
0.0214
0.283

Please state, for each entry, its recorded EC50, cAMP.
1. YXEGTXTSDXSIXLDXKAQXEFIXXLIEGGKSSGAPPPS (Aib2, αMeF(2F)6, 4Pal10, αMeL13, Orn16, Aib20, D-Glu24, αMeY25, K17 and K31: K((εK)-AEEA-(γ-Glu)-CO-(CH2)12-CO2H), C-terminal NH2) [Example 36]
2. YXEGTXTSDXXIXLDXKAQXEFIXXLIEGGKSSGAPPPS (Aib2, αMeF(2F)6, 4Pal10, Aib11, αMeL13, Orn16, Aib20, D-Glu24, αMeY25, K17 and K31: K(AEEA2-(γ-Glu)-CO-(CH2)12-CO2H), C-terminal NH2) [Example 89]

Reply:
0.536
1.03

Please state, for each entry, its recorded EC50, cAMP.
1. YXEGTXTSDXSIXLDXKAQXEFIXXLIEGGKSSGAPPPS (Aib2, αMeF(2F)6, 3TA10, αMeL13, Orn16, Aib20, D-Glu24, αMeY25, K17 and K31: K(AEEA2-(γ-Glu)-CO-(CH2)12-CO2H), C-terminal NH2) [Example 146]
2. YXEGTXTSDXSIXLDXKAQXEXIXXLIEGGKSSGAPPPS (Aib2, αMeF(2F)6, 4Pal10, αMeL13, Orn16, Aib20, Bzt22, D-Glu24, αMeY25, K17 and K31: K(AEEA2-(γ-Glu)-CO-(CH2)12-CO2H), C-terminal NH2) [Example 147]

Reply:
1: 0.688; 2: 0.338
